pIC50: −log10 of the molar value.
Reported pIC50 values, UniProt P23743.
Sequence (P23743 whole entry): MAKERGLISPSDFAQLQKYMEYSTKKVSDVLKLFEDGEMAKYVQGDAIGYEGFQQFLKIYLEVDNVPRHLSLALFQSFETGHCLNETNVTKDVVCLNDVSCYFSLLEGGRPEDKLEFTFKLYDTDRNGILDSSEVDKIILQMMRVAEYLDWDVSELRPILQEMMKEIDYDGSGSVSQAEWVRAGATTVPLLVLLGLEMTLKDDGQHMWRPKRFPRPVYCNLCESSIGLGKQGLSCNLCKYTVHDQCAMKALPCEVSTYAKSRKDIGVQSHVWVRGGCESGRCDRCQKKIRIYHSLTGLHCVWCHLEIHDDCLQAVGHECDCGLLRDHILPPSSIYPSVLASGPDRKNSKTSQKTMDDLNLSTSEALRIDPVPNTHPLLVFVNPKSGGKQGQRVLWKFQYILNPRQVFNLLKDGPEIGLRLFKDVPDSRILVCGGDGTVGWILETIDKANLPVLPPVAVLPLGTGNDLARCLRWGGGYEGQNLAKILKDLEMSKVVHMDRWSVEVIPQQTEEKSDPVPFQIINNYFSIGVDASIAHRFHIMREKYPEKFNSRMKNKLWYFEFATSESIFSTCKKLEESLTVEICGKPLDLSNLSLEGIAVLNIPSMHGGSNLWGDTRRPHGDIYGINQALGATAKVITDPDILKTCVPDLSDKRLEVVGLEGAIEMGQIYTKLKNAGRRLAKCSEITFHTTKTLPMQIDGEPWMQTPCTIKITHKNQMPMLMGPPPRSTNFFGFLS
Outcome measure: pIC50

>  <Compound>
C[C@H](c1ccc2nccnc2c1)N1CC2CCC1CN2c1cc(=O)n(C)c2cn(CC#N)nc12 (stereo partly shown) [Compound A125b]

>  <Outcome measure>
pIC50

>  <Bound type>
<

>  <Readout value>
5.00

$$$$
>  <Compound>
CC[C@H]1CN(C(C)c2ccncc2)[C@H](CC)CN1c1cc(=O)n(C)c2cn(CC#N)nc12 (stereo partly shown)

>  <Outcome measure>
pIC50

>  <Bound type>
=

>  <Readout value>
7.66

$$$$
>  <Compound>
CC[C@H]1CN([C@@H](C)c2ccc3nccnc3c2)[C@H](CC)CN1c1cc(=O)[nH]c2cn(CC#N)nc12

>  <Outcome measure>
pIC50

>  <Bound type>
=

>  <Readout value>
5.63

$$$$
>  <Compound>
CC[C@H]1CN(C(C)c2ccc(C(F)(F)F)cc2F)[C@H](CC)CN1c1cc(=O)n(C)c2c[nH]nc12 (single isomer, unassigned) [Compound A231b]

>  <Outcome measure>
pIC50

>  <Bound type>
=

>  <Readout value>
6.52

$$$$
>  <Compound>
COc1c(N2C[C@@H](C)N([C@@H](C)c3ccc4nccnc4c3)C[C@@H]2C)c2nn(CC#N)cc2n(C)c1=O

>  <Outcome measure>
pIC50

>  <Bound type>
<

>  <Readout value>
5.00

$$$$
>  <Compound>
CC#CCn1cc2c(n1)c(N1C[C@@H](CC)N(C(C)c3cnc4ccccc4n3)C[C@@H]1C)cc(=O)n2C (single isomer, unassigned) [Compound A394b]

>  <Outcome measure>
pIC50

>  <Bound type>
=

>  <Readout value>
7.52

$$$$
>  <Compound>
CC(c1ccc2ncnn2c1)N1C[C@H](C)N(c2cc(=O)n(C)c3cn(CC#N)nc23)C[C@H]1C (stereo partly shown)

>  <Outcome measure>
pIC50

>  <Bound type>
=

>  <Readout value>
5.08

$$$$
>  <Compound>
C[C@H]1CN([C@@H](C)c2ccc3c(c2)OC(C)(C)CO3)[C@@H](C)CN1c1cc(=O)n(C)c2cn(CC#N)nc12 [Compound A46a]

>  <Outcome measure>
pIC50

>  <Bound type>
<

>  <Readout value>
5.00

$$$$
>  <Compound>
C[C@@H]1CN(c2cc(=O)n(C)c3c(Cl)n(CC#N)nc23)[C@@H](C)CN1[C@H](C)c1ccc2nccnc2c1

>  <Outcome measure>
pIC50

>  <Bound type>
=

>  <Readout value>
4.38

$$$$
>  <Compound>
CCc1c(C(C)N2C[C@H](CC)N(c3cc(=O)n(C)c4cn(CC#N)nc34)C[C@H]2CC)cnn1C (single isomer, unassigned) [Compound A213b]

>  <Outcome measure>
pIC50

>  <Bound type>
<

>  <Readout value>
5.00

$$$$
